B1: TRAF3IP2 (parent)
chain: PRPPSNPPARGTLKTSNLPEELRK

variants of: B1; experiment: protein stability index of a GFP-peptide fusion (GPS, HEK-293T) (PSI 1-6); higher = more stable; details: c terminus: a fixed tail appended;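 also: lentivirally expressed fusions sorted by FACS into six bins by GFP to DsRed ratio, PSI derived from sequencing read proportions per bin multiplied by bin number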
MEASURE_NAME: protein stability index
Please respond with just the number, no unit label.

Example entries and their recorded answers appear below.
VAR: G11F
protein stability index: 3.69
--
VAR: P3H
protein stability index: 4.02
--
VAR: A9K
protein stability index: 4.44
--
VAR: T15N
protein stability index: 4.53
--
VAR: N17S
protein stability index: 4.91

`T12K` has a reported protein stability index of 4.7

protein stability index in this record for `S16D` : 4.83

The variant identified as `S16T` registered its protein stability index at 4.92

Value of protein stability index reported for the variant `P19N` is 4.83

Briefly, protein stability index measured for `N6S` : 5.01

Measured protein stability index, `K24W` : 4.19

Record `A9V` , field protein stability index: 4.31

Sure, the documented protein stability index for `L13Q` is 4.8

Quick note, protein stability index for `L18G` landed at 4.96

Lab book: protein stability index of `R2C` noted as 5.19

Lookup result for `R23D` ; measured protein stability index: 4.9
